B1: TMEM120A (parent)
chain: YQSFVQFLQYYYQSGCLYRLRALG

Variants of: B1
measurementDescription: protein stability index of a GFP-peptide fusion (GPS, HEK-293T) (PSI 1-6); higher = more stable;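 also: lentivirally expressed fusions sorted by FACS into six bins by GFP to DsRed ratio, PSI derived from sequencing read proportions per bin multiplied by bin number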
measurementContext: c terminus: a fixed tail appended

- sequenceVariant: "G24L"
  protein stability index: 2.97
- sequenceVariant: "V5M"
  protein stability index: 2.91
- sequenceVariant: "Y1F"
  protein stability index: 3.06
- sequenceVariant: "A22I"
  protein stability index: 3.44
- sequenceVariant: "Q13W"
  protein stability index: 4.1
- sequenceVariant: "V5I"
  protein stability index: 3.51
- sequenceVariant: "G15I"
  protein stability index: 2.66
- sequenceVariant: "Y18E"
  protein stability index: 2.07
- sequenceVariant: "L20D"
  protein stability index: 2.38
- sequenceVariant: "V5N"
  protein stability index: 4.88
- sequenceVariant: "Y10E"
  protein stability index: 1.79
- sequenceVariant: "Y11A"
  protein stability index: 1.28
- sequenceVariant: "Y11L"
  protein stability index: 1.34
- sequenceVariant: "S14G"
  protein stability index: 3.08
- sequenceVariant: "G24K"
  protein stability index: 3.01
- sequenceVariant: "L23S"
  protein stability index: 2.6
- sequenceVariant: "L23G"
  protein stability index: 3.3
- sequenceVariant: "V5H"
  protein stability index: 2.39
- sequenceVariant: "Q13C"
  protein stability index: 3.12
- sequenceVariant: "F4I"
  protein stability index: 3.47
- sequenceVariant: "Y11C"
  protein stability index: 2.45
- sequenceVariant: "Q6N"
  protein stability index: 2.48
- sequenceVariant: "Q2W"
  protein stability index: 1.21
- sequenceVariant: "V5K"
  protein stability index: 2.62
- sequenceVariant: "Q6V"
  protein stability index: 2.92
